Each item that follows carries a reported melting point.

Please look up its melting point: C=CC(=O)Nc1ccc(N2CCN(C(=O)Nc3c(Cl)cccc3Cl)CC2)cc1 [Compound 202]
245 to 246 °C

Please look up its melting point: Cc1ccc(NCCC(=O)Nc2ccc(N3CCN(C(=O)Nc4c(Cl)cccc4Cl)CC3)cc2)c(C)c1 [Compound 298]
241 to 242 °C

Please look up its melting point: CC(O)c1cc(Cl)c(NC(=O)N2CCC(c3ccc(NC(=O)CCCc4ccccc4)cc3)CC2)c(Cl)c1 (centres unmarked) [Compound 273]
203 to 204 °C

Please look up its melting point: O=C(CNc1ccccc1Cl)Nc1ccc(N2CCN(C(=O)Nc3c(Cl)cccc3Cl)CC2)cc1 [Compound 4]
247 to 249 °C

Please look up its melting point: O=C(CCCC(=O)OCc1ccccc1)Nc1ccc(N2CCN(C(=O)Nc3c(Cl)cc(CN4CCCCC4)cc3Cl)CC2)cc1 [Compound 292]
180 to 181 °C

Please look up its melting point: O=C(CCCc1ccccc1)Nc1ccc(N2CCN(C(=O)Nc3c(Cl)cccc3Cl)CC2)cc1 [Compound 58]
114 to 124 °C

***
Please look up its melting point: CCOC(=O)CCCC(=O)Nc1ccc(N2CCN(C(=O)Nc3c(Cl)cc(CN4CCCCC4)cc3Cl)CC2)cc1 [Compound 318]
211 to 212 °C

Please look up its melting point: COc1ccc(CNCC(=O)Nc2ccc(N3CCN(C(=O)Nc4c(Cl)cccc4Cl)CC3)cc2)cc1 [Compound 177]
128 to 129 °C
